Parameter: pIC50. Scope: all listed entries.
- system: DRB1*0801 (Homo sapiens, UniProt P01903+P01911, A100R/A103L/A169T/D86S/F76Y/H45Y/I96F/K41T/L162R/M171V/P40S/Q125H/Q178H/Q39Y/Q99D/R218S/R42G/S66Y/V115G/W38E)
- procedureText: MHC II competition binding assay
pIC50: −log10 of the molar value. Where no end group is shown, it is not given here.
testReadout: pIC50

GVDFFMNEGTPVHAISSGKIV [Design 41_46] :: < 3.60
HLHFQRMVGDFSNPTAQ [Peptide 21_22] :: 3.68
HLHFQRMVNDFSNPTAQ [Peptide S122D] :: 3.82
HLHFQTMVNDFGNPTAQ [Peptide 182224] :: < 3.60
HLHFQTMVNSFSNPTAQ [Peptide R118T] :: 4.24
DHVKAGQIIGWSGSTGY [Peptide Y93H] :: < 3.60
DYVKAGQQIGWSGSTGY [Peptide I99Q] :: < 3.60
HLHFQRMVGDFGNPTAQ [Peptide 212224] :: < 3.60
HLHFQTMVNDFSNPTAQ [Peptide 18_22] :: < 3.60

====

- system: DRB1*0301 (Homo sapiens, UniProt P01903+P01911, A100K/A102G/A103R/A169T/F55Y/I96L/K41T/L162R/M171V/P40S/Q125H/Q178H/Q39Y/R42S/S66N/T106N/T262R/W38E/Y61H)
- Construct: purchased Benaroya Research Institute (Seattle, Wash.)
- procedureText: MHC II competition binding assay
pIC50: −log10 of the molar value. Where no end group is shown, it is not given here.
testReadout: pIC50

HLHFQTMVNDFGNPTAQ [Peptide 182224] :: 3.88
HLHFQRMVGDFSNPTAQ [Peptide 21_22] :: 4.11
HLHFQTMVNSFSNPTAQ [Peptide R118T] :: 4.17
HLHFQRMVNDFSNPTAQ [Peptide S122D] :: 5.03
HLHFQRMVGDFGNPTAQ [Peptide 212224] :: 3.93
HLHFQTMVNDFSNPTAQ [Peptide 18_22] :: 4.55

====

- system: DRB1*0701 (Homo sapiens, UniProt P01903+P01911, A100R/A102G/A103Q/D57E/D86V/E43K/F76Y/K127E/L162R/M171V/P40G/Q125H/Q99D/R33Q/R42Y/R54Q/S133A/S66F/T210M/V115G/Y107V/Y59L/Y89S)
- procedureText: MHC II competition binding assay
- experimentalParameters: synthetic peptide competing with biotinylated control peptide; read-out: IC50 0701
Where no end group is shown, it is not given here.
Parameter: IC50. Scope: all listed entries.
testReadout: IC50

SAQWLNHYKKGYGYG [Design N13H] :: > 250 µM
SAQWLGNYKKGYGYG [Design N12G] :: > 250 µM
SAQWLNNYKKGYGYG [Design C1WT] :: > 250 µM

====

- system: DRB1*0401 (Homo sapiens, UniProt P01903+P01911, A100K/A169T/F76Y/I96L/K127E/L162R/M171V/N62H/P40V/Q125Y/R42H/S133A/S149N/S66Y/V115G/V209L/W38E)
- Construct: purchased Benaroya Research Institute (Seattle, Wash.)
- procedureText: MHC II competition binding assay
- experimentalParameters: DRB1*0401; read-out: IC50
Where no end group is shown, it is not given here.
testReadout: IC50 (µM)

HLHFQRMVGSFSNPTAQ [Peptide N121G] :: 6.13
HLHFQRMVNSFSNPTAQ [Design C5WT] :: 0.05

====

- system: DRB1*0301 (Homo sapiens, UniProt P01903+P01911, A100K/A102G/A103R/A169T/F55Y/I96L/K41T/L162R/M171V/P40S/Q125H/Q178H/Q39Y/R42S/S66N/T106N/T262R/W38E/Y61H)
- Construct: purchased Benaroya Research Institute (Seattle, Wash.)
- procedureText: MHC II competition binding assay
Where no end group is shown, it is not given here.
testReadout: IC50

DYVKAGQQIGWSGSTGY [Peptide I99Q] :: > 250 µM
DHVKAGQIIGWSGSTGY [Peptide Y93H] :: > 250 µM
GVDFFMNEGTPVHAISSGKIV [Design 41_46] :: > 250 µM
